assay: Cmax in mouse at 10 mg/kg, po; type: ADME, organism-based; set-up: dose 10 mg/kg, route oral; conditions: in vivo
Labelling field: enter class 1 if recorded Cmax is less than 3 µM. Enter class 0 if it equals or exceeds that cut-off.

# count of solved cases: 4
> print(dat)
                                smiles.data    label
1  Nc1nc(=O)n([C@H]2CC[C@H](NS(=O)(=O)c3cccc(-c4ccc(Cl)cc4)c3)C2)cc1F  class 1
2  COc1ccc(-c2cccc(S(=O)(=O)N[C@H]3CC[C@H](n4cc(F)c(N)nc4=O)C3)c2)cc1  class 1
3  Cc1cc(Cl)ccc1-c1cccc(C(=O)N[C@H]2CC[C@H](n3cc(F)c(N)nc3=O)C2)c1  class 0
4  Nc1nc(=O)n([C@H]2CC[C@H](NC(=O)c3cc(-c4cc5ccccc5s4)ccn3)C2)cc1F  class 0

*Q* API: query returns whether the molecule falls strictly under 3 µM in Cmax. Query: "Cc1cc(Cl)ccc1-c1cccc(S(=O)(=O)N[C@H]2CC[C@H](n3cc(F)c(N)nc3=O)C2)c1"
*A* class 1

*Q* API: query returns whether the molecule falls strictly under 3 µM in Cmax. Query: "Nc1nc(=O)n([C@H]2CC[C@H](NC(=O)c3cccc(-c4ccc(Cl)cc4)c3)C2)cc1F"
*A* class 0

*Q* API: query returns whether the molecule falls strictly under 3 µM in Cmax. Query: "COc1ccc(-c2cccc(C(=O)N[C@H]3CC[C@H](n4cc(F)c(N)nc4=O)C3)c2)cc1"
*A* class 0
